tested on: 777334-354-R2-J4-PDC tumor spheroids with HUVEC/MSC, viability; test: Anticancer human tumor 777334-354-R2-J4-PDC patient-derived pancreatic adenocarcinoma cell line growth inhibition [GQUAD]; conditions: second compound 0.316 µM; first compound 0.316 µM; hits give low values;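 also: spheroids exposed to compounds for 7 days before readout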
Mark Met only when viability, T/C stays strictly below 80%. Values equal to the cut-off are Not met.

- Compound: "COc1ncnc(C2CC2)c1-c1ncc2cnn(Cc3ccc(-c4nc(C(F)(F)F)cn4C(C)C)cc3)c2n1 + CN(C)c1ccc(Nc2c3ccc(NC(=O)CCN4CCCC4)cc3nc3cc(NC(=O)CCN4CCCC4)ccc23)cc1"
  Classification: "Not met"
- Compound: "CC(C)(O)C1CCC(Nc2ccc3ncc(-c4cccc(C(F)(F)F)c4)n3n2)CC1 (stereo not given) + Cc1[nH]c2ccc(F)cc2c1-c1nc2c3cccnc3c3ncccc3c2[nH]1"
  Classification: "Not met"
- Compound: "C#Cc1c(F)ccc2cc(O)cc(-c3ncc4c(N5CC6CCC(C5)N6)nc(OCC56CCCN5CC(F)C6)nc4c3F)c12 (stereo not given) + Cc1cnc(CNC(=O)c2c(=O)c3ccc(N4CCCN(C)CC4)nc3n3c2sc2ccccc23)cn1"
  Classification: "Met"
- Compound: "CC(=O)O[C@H]1C(=O)[C@@]2(C)[C@H]([C@H](OC(=O)c3ccccc3)[C@]3(O)C[C@H](OC(=O)[C@H](O)[C@@H](NC(=O)c4ccccc4)c4ccccc4)C(C)=C1C3(C)C)[C@]1(OC(C)=O)CO[C@@H]1C[C@@H]2O + CN(C)c1ccc(Nc2c3ccc(NC(=O)CCN4CCCC4)cc3nc3cc(NC(=O)CCN4CCCC4)ccc23)cc1"
  Classification: "Met"
- Compound: "C=CCn1c(=O)c2cnc(Nc3ccc(N4CCN(C)CC4)cc3)nc2n1-c1cccc(C(C)(C)O)n1 + CN(C)c1ccc(Nc2c3ccc(NC(=O)CCN4CCCC4)cc3nc3cc(NC(=O)CCN4CCCC4)ccc23)cc1"
  Classification: "Met"
- Compound: "CC[C@@]1(O)C(=O)OCc2c1cc1n(c2=O)Cc2cc3c(CN(C)C)c(O)ccc3nc2-1 + CN(C)c1ccc(Nc2c3ccc(NC(=O)CCN4CCCC4)cc3nc3cc(NC(=O)CCN4CCCC4)ccc23)cc1"
  Classification: "Met"
- Compound: "C=CCn1c(=O)c2cnc(Nc3ccc(N4CCN(C)CC4)cc3)nc2n1-c1cccc(C(C)(C)O)n1 + Cc1[nH]c2ccc(F)cc2c1-c1nc2c3cccnc3c3ncccc3c2[nH]1"
  Classification: "Not met"
- Compound: "CCc1c2c(nc3ccc(O)cc13)-c1cc3c(c(=O)n1C2)COC(=O)[C@]3(O)CC + Cc1[nH]c2ccc(F)cc2c1-c1nc2c3cccnc3c3ncccc3c2[nH]1"
  Classification: "Met"
- Compound: "COc1ccc([C@@H](O)c2cc(-c3ncnc4cc(N5CCOCC5)ccc34)c(F)cc2Cl)nn1 + Cc1[nH]c2ccc(F)cc2c1-c1nc2c3cccnc3c3ncccc3c2[nH]1"
  Classification: "Not met"
- Compound: "Cc1cccc(N(C)C(=O)C2C(O)CCN2c2nc(C)cc(C(F)(F)F)c2C#N)c1 (stereo not given) + CN(C)c1ccc(Nc2c3ccc(NC(=O)CCN4CCCC4)cc3nc3cc(NC(=O)CCN4CCCC4)ccc23)cc1"
  Classification: "Not met"
- Compound: "O=C(c1cc(Cc2n[nH]c(=O)c3ccccc23)ccc1F)N1CCN(C(=O)C2CC2)CC1 + CN(C)c1ccc(Nc2c3ccc(NC(=O)CCN4CCCC4)cc3nc3cc(NC(=O)CCN4CCCC4)ccc23)cc1"
  Classification: "Not met"
- Compound: "C=CC(=O)N1CCN(c2nc(=O)n(-c3c(C)ccnc3C(C)C)c3nc(-c4c(O)cccc4F)c(F)cc23)C(C)C1 (stereo not given) + Cc1[nH]c2ccc(F)cc2c1-c1nc2c3cccnc3c3ncccc3c2[nH]1"
  Classification: "Not met"
- Compound: "CCc1c2c(nc3ccc(O)cc13)-c1cc3c(c(=O)n1C2)COC(=O)[C@]3(O)CC + CN(C)c1ccc(Nc2c3ccc(NC(=O)CCN4CCCC4)cc3nc3cc(NC(=O)CCN4CCCC4)ccc23)cc1"
  Classification: "Met"
- Compound: "CC(C)n1c(=O)n(C)c2cnc3cc(F)c(-c4ccc(OCCCN5CCCCC5)nc4)cc3c21 + Cc1cnc(CNC(=O)c2c(=O)c3ccc(N4CCCN(C)CC4)nc3n3c2sc2ccccc23)cn1"
  Classification: "Met"
- Compound: "C=CC(=O)N1CCN(c2nc(=O)n(-c3c(C)ccnc3C(C)C)c3nc(-c4c(O)cccc4F)c(F)cc23)C(C)C1 (stereo not given) + Cc1cnc(CNC(=O)c2c(=O)c3ccc(N4CCCN(C)CC4)nc3n3c2sc2ccccc23)cn1"
  Classification: "Not met"
- Compound: "O=c1[nH]cc(F)c(=O)[nH]1 + Cc1[nH]c2ccc(F)cc2c1-c1nc2c3cccnc3c3ncccc3c2[nH]1"
  Classification: "Not met"
- Compound: "CCCS(=O)(=O)Nc1ccc(F)c(C(=O)c2c[nH]c3ncc(-c4ccc(Cl)cc4)cc23)c1F + Cc1cnc(CNC(=O)c2c(=O)c3ccc(N4CCCN(C)CC4)nc3n3c2sc2ccccc23)cn1"
  Classification: "Met"
- Compound: "Cn1ncnc1[C@H]1c2n[nH]c(=O)c3cc(F)cc(c23)N[C@@H]1c1ccc(F)cc1 + Cc1cnc(CNC(=O)c2c(=O)c3ccc(N4CCCN(C)CC4)nc3n3c2sc2ccccc23)cn1"
  Classification: "Met"
